Assay: Human HepG2 cell viability assay in 384 well format
Format: toxicity, cell-based
Set-up: dose 125 nL, time 70.5 hour; concentration not given beside the values
Settings: HepG2 cells, read-out: Inhibition
Metric Name: cytotoxicity at 70.5 h (%)
Give bare numbers, in %.

For the molecule COCC1CN(C(=O)c2ccco2)Cc2nccn2C1 (centres undefined) , what cytotoxicity at 70.5 h is on record?
-9.63

Now consider O=S(=O)(Nc1ncccc1F)c1cc(Cl)cc2c1OCC2 and answer again.
6.97

Now consider O=C(c1cc(CC2(NC3CCCCC3)COC2)no1)N1CCCCC1 and answer again.
11.7

Each molecule below has a reported value. Please supply its cytotoxicity at 70.5 h.
1. Cn1ccnc1-c1ccccc1C(=O)N1CCc2c(nc(N)[nH]c2=O)C1
2. Cc1nn(CC(=O)n2cccn2)c(C)c1I
3. COc1ccc(COCC(O)CN2CCC(c3ccn[nH]3)CC2)cc1 (centres undefined)
4. CCOC(=O)N1CCN(c2nc(NC3CC3)c3ccccc3n2)CC1
5. COc1ccccc1OCCC(=O)N1CCCC1Cn1cccn1 (centres undefined)
6. NC(=O)c1cc(C2CCCN(CCOc3cccc(F)c3)C2)n[nH]1 (centres undefined)

1: -11.8; 2: 15.6; 3: -8.27; 4: 3.06; 5: 2.97; 6: 13

----------
Exercise: state measured cytotoxicity at 70.5 h for each of the compounds provided.
Test: Human HepG2 cell viability assay in 384 well format
Assay type: toxicity, cell-based
Design: dose 125 nL, time 70.5 hour; concentration not given beside the values
Details: HepG2 cells, read-out: Inhibition
Answers are plain numbers, in %.

Before answering, review these 3 worked examples.
For the compound O=C(c1cccc(Cl)c1)N1CCCC(Nc2ccc(F)cc2)C1 (stereo unspecified) , what cytotoxicity at 70.5 h is on record?
2.07

Now consider CN1CCN(c2cc(CNC(=O)Cn3cccn3)ccn2)CC1 and answer again.
13.6

Now consider COCCC1(CO)CCCN(Cc2ccc(C(F)(F)F)nc2)C1 (stereo unspecified) and answer again.
-1.12

Each compound below has a reported value. Please supply its cytotoxicity at 70.5 h.
1. O=C(c1ccc(Cl)o1)N1CCCN(Cc2cscn2)CC1
2. CC(C)(CNC(=O)C1CCCN(C(N)=O)C1)c1cccc(Cl)c1 (stereo unspecified)
3. Cc1cc(C)n(-c2nc(C(=O)NCCS(=O)(=O)N3CCCCC3)cs2)n1

1: -5.01; 2: 9.61; 3: -2.01

----------
Assay: Human HepG2 cell viability assay in 384 well format
Assay type: toxicity, cell-based
Design: dose 125 nL, time 70.5 hour; concentration not given beside the values
Conditions: HepG2 cells, read-out: Inhibition
Metric Name: cytotoxicity at 70.5 h (%)
Numbers only, in %.

For the compound Cc1csc(CN2C[C@@H]3CN(C)CCO[C@@H]3C2)n1 , what cytotoxicity at 70.5 h is on record?
-3.79

Now consider CC(C)NC(=O)COc1cccc(-c2nc(C(C)C)no2)c1 and answer again.
20.9

Now consider CC1(C)Cc2cc(-c3cncn3CCNC3CCS(=O)(=O)C3)ccc2O1 (stereo not drawn) and answer again.
-0.723

Now consider Cc1cnc(N2CCC3(CC2)CC(N(C)Cc2ccncc2)C3)nc1 and answer again.
-5.66

Now consider C[C@@H]1CN(c2nc3c(cc2C(N)=O)CCC3)C[C@@]1(O)C1CCC1 and answer again.
-11.3

Now consider COCC(=O)N1CCN(C(C)=O)C[C@@H]1C(=O)OC and answer again.
12.2

Now consider COCc1cc(N2CCOC(c3ccc(Cl)c(Cl)c3)C2)ncn1 (stereo not drawn) and answer again.
-12.1

Now consider Cn1c(CN2CCOCC2)nnc1C1CCCN(CC(N)=O)C1 (stereo not drawn) and answer again.
3.41

Each compound below has a reported value. Please supply its cytotoxicity at 70.5 h.
1. COCCNC(=O)c1sc(Nc2ccc(Cl)cn2)nc1C
2. O=c1[nH]c2ccccc2c(=O)n1Cc1nnnn1C1CC1
3. CCOc1ccnc(N2CCN(C(=O)C(C)(C)C#N)CC2)n1

1: -13.2; 2: 2.86; 3: -12.5

----------
Assay: Human HepG2 cell viability assay in 384 well format
Type: toxicity, cell-based
Set-up: dose 125 nL, time 70.5 hour; concentration not given beside the values
Conditions: HepG2 cells, read-out: Inhibition
Metric Name: cytotoxicity at 70.5 h

Each molecule below has a reported value. Please supply its cytotoxicity at 70.5 h.
1. O=C(NCCOC1CCCC1)c1ccc(-c2ccco2)[nH]c1=O
2. COc1cc(CNC(C)c2cccc(Cl)c2)cc(OC)c1OC (stereo unspecified)
3. CCOCCCNC(=O)C(NC(=O)Cc1cccs1)c1ccc(C)cc1 (stereo unspecified)
4. COc1cccc(COCC(=O)NC2CCN(CC(N)=O)CC2)c1
5. COc1cc(C)ccc1C(=O)N1CCC2(CCC(=O)N(C(C)C)C2)CC1
6. Cc1ccc(C(=O)NCCCNc2ccc(C(F)(F)F)cn2)cc1

-2.19%
-9.01%
-2.89%
-5.13%
-4.16%
-9.05%

----------
Experiment: Human HepG2 cell viability assay in 384 well format
Assay type: toxicity, cell-based
Set-up: dose 125 nL, time 70.5 hour; concentration not given beside the values
Conditions: HepG2 cells, read-out: Inhibition
Exercise: state measured cytotoxicity at 70.5 h for each of the compounds provided.
Give bare numbers, in %.

Before answering, review these 5 worked examples.
For the compound c1cc(-c2cn[nH]c2)ccc1CN1CCCCC1 , what cytotoxicity at 70.5 h is on record?
13.1

Now consider CNS(=O)(=O)c1cccc(C(C)NCc2nccn2C(C)C)c1 (stereo unspecified) and answer again.
10.8

Now consider CN(C)C(=O)NCc1nnc2n1CCN(Cc1ccsc1)C2 and answer again.
3.34

Now consider CS(=O)(=O)N1C[C@@H]2CC[C@H](C1)N(Cc1cscn1)C2=O and answer again.
-11.4

Now consider N#Cc1ccc(N2CCC3(CC2)COCCN3Cc2cccnc2)cc1 and answer again.
-4.74

Let us move to another entry and its cytotoxicity at 70.5 h.
For the compound c1ccc(OCc2nnc3n2CCN(Cc2ccco2)C3)nc1 , what cytotoxicity at 70.5 h is on record?
-2.29

----------
Experiment: Human HepG2 cell viability assay in 384 well format
Format: toxicity, cell-based
Set-up: dose 125 nL, time 70.5 hour; concentration not given beside the values
Settings: HepG2 cells, read-out: Inhibition
Exercise: state measured cytotoxicity at 70.5 h for each of the compounds provided.
Give bare numbers, in %.

For the compound Cc1cccc(OC2CCN(c3ncc(C#N)cc3Cl)CC2)n1 , what cytotoxicity at 70.5 h is on record?
-6.22

Now consider OCC1(NCc2cnc(-c3cccs3)s2)CCOCC1 and answer again.
-6.15

Now consider Cc1cnn(CCNCC(=O)NCC2(c3ccccc3)CC2)c1 and answer again.
31.1

Now consider O=c1cc(N2CCCC2)cnn1Cc1noc(C2CCCO2)n1 (stereo not drawn) and answer again.
7.8

Now consider CS(=O)(=O)CCCN(CCCO)C1CCc2ccccc21 (stereo not drawn) and answer again.
-107

Each compound below has a reported value. Please supply its cytotoxicity at 70.5 h.
1. O=C(CCc1ccsc1)NCC1CCN(c2ccccc2)C1 (stereo not drawn)
2. O=C(c1cn(CC(=O)N2CCCCCC2)c2ccccc12)C1CC1
3. CN(C)c1ccc2c(c1)CN(C(=O)c1ccnnc1)C2c1cnco1 (stereo not drawn)
4. Cc1ccc(C(O)CNC(=O)Nc2cc(C)nn2C)cc1 (stereo not drawn)
5. O=C(NCCOc1ccccc1)C1NCCc2[nH]cnc21 (stereo not drawn)
6. NC(=O)C1CCN(C(=O)c2cc(Br)ccc2-n2cnnn2)CC1
7. Cc1cccnc1CN1CCC2(CC(Nc3ccncn3)C2)C1 (stereo not drawn)

2.35
-7.67
-13.8
-3.09
-7.83
27.7
1.25

----------
Exercise: state measured cytotoxicity at 70.5 h for each of the molecules provided.
Assay: Human HepG2 cell viability assay in 384 well format
Assay type: toxicity, cell-based
Design: dose 125 nL, time 70.5 hour; concentration not given beside the values
Conditions: HepG2 cells, read-out: Inhibition
Answers are plain numbers, in %.

Before answering, review these 2 worked examples.
For the molecule CCCc1n[nH]c(C2CN(C(=O)c3cc4c(s3)CCC4)CCO2)n1 (stereo unspecified) , what cytotoxicity at 70.5 h is on record?
-7.08

Now consider Cc1cccc2nc(CN3CCC(N4CCN(C)C4=O)CC3)cn12 and answer again.
-4.38

Each molecule below has a reported value. Please supply its cytotoxicity at 70.5 h.
1. COCc1cc(N(C)Cc2cnccn2)nc(C(C)(C)C)n1
2. Cc1ccccc1CNC(=O)Cn1ncc2c1c(C)nn2C
3. c1csc(SCC2CN=C(N3CCOCC3)S2)c1 (stereo unspecified)
4. O=C1CC2(CCSC2)C(=O)N1Cc1ncc(-c2ccccc2)o1 (stereo unspecified)

1. -12.2
2. -9.91
3. -3.45
4. -2.34
